Test system: Plasmodium berghei
Test: Screen against P. berghei liver stage (PbLuc), transformed with Luciferase, at 10uM
Assay type: functional, HepG2
Conditions: tested at 10 uM
Hit rate of the full screen: of about 69,000 compounds, about 8,600 (12%) showed an effect of 50% or more. The sample as a whole holds a higher share of strong results than the screen did.
Classify: true (1) when INHIBITION is strictly less than 20%; false (0) when INHIBITION is not.

>>> label_value("CCC(O)CN1CCN(C(=O)CCc2c(C)noc2Cl)CC1 (configuration not stated)")
"false (0)"
>>> label_value("Cc1nccn1CC1CCCN(Cc2ccc(-c3cccnc3)cc2)C1 (configuration not stated)")
"false (0)"
>>> label_value("Cc1cnc(N2C[C@@H]3CN(Cc4ccco4)CCC[C@]3(C(=O)O)C2)nc1")
"true (1)"
>>> label_value("C=Cn1ncc(CN2C[C@@H]3CCCN3C[C@@H]2CCSC)c1C")
"false (0)"
>>> label_value("COc1c(C2CCCN2Cc2nccn2C)c(C)nn1C (configuration not stated)")
"false (0)"

Query block: Is the reported INHIBITION for Cc1nc(C)n(CC2CCCN(Cc3cccnc3)C2)n1 (configuration not stated) strictly below 20%?
Result block: true (1)

Query block: In the record for CCn1ccnc1CN1CCCC1c1c(C)nn(C)c1OC (configuration not stated) , is INHIBITION less than 20%?
Result block: false (0)

Query block: Threshold test, INHIBITION < 20%: CC(NCc1ccco1)c1nnc2n1CCCC2 (configuration not stated)
Result block: false (0)

Query block: Regarding "CCCn1ncc(CN2C[C@@H]3CCCN3C[C@H]2CCSC)c1C" , kindly confirm whether its INHIBITION is beneath 20%.
Result block: false (0)

Query block: I wonder whether Cc1cc(OCC(=O)N2CCCC2c2noc(C)n2)no1 (configuration not stated) has INHIBITION below 20%. Can you tell?
Result block: true (1)

Query block: Identify whether the compound "CCS(=O)(=O)N1CCC2(CCN(CC(=O)N(C)C)C2=O)CC1" records INHIBITION below 20%.
Result block: false (0)

Query block: # strict comparison: is reported INHIBITION < 20%? input = CC(NCc1cc2cc(F)ccc2o1)c1nnc2n1CCCC2 (configuration not stated)
Result block: false (0)

Query block: I wonder whether O=C(CN1CCN(CC(O)C2CC2)CC1)NCc1ccccc1Cl (configuration not stated) has INHIBITION below 20%. Can you tell?
Result block: true (1)

Query block: Please determine if Cc1ccc2oc(CNC(C)c3nnc4n3CCCC4)cc2c1 (configuration not stated) is below 20% in terms of INHIBITION.
Result block: false (0)

Query block: Is the reported INHIBITION for "CCc1noc(CN2CCC(C(=O)Nc3cnn(CC)c3)CC2)n1" strictly below 20%?
Result block: true (1)

Query block: Quick check: does "CC(C)NC(=O)[C@H]1C[C@@H]2[C@@H](C1)OCCN2Cc1nccs1" have INHIBITION under 20%?
Result block: true (1)

Query block: Is 20% strictly greater than the compound's reported INHIBITION? compound: "O=C(c1ccccc1)N1CCOC2(CCN(Cc3cccs3)CC2)C1"
Result block: true (1)

Query block: Please determine if "CCCc1noc(CN2CCC(C(=O)Nc3cnn(CC)c3)CC2)n1" is below 20% in terms of INHIBITION.
Result block: false (0)

Query block: Determine whether this compound shows INHIBITION lower than 20% (ties excluded): CNC(=O)Cc1ccc(NC(=O)NC(C)C(C)C)cc1 (configuration not stated)
Result block: true (1)

Query block: Hello, is INHIBITION of the following compound strictly smaller than 20%? "Cn1ccc2c(-c3cc(N4CCOCC4)ncn3)ccnc21"
Result block: true (1)

Query block: is_below(INHIBITION, 20%) for "O=C(NCCNC(=O)C1CCN(c2ncccn2)CC1)c1ccoc1" ?
Result block: true (1)

Query block: I wonder whether "O=C(NCCNC(=O)c1scnc1Cl)c1ccoc1" has INHIBITION below 20%. Can you tell?
Result block: true (1)

Query block: Please determine if CCn1ccnc1CN1CCN(C(C)C(=O)NCc2ccco2)CC1 (configuration not stated) is below 20% in terms of INHIBITION.
Result block: true (1)

Query block: # strict comparison: is reported INHIBITION < 20%? input = "C=Cn1ncc(CN2C[C@@H]3CCCN3C[C@@H]2Cc2ccccc2)c1C"
Result block: false (0)

Query block: I wonder whether "COCC(=O)N1CCC(Nc2ccnc3ccc(Cl)cc23)CC1" has INHIBITION below 20%. Can you tell?
Result block: true (1)

Query block: Would you kindly verify if INHIBITION of "Fc1cnc(N2CCOC3(CCN(Cc4cccs4)CC3)C2)nc1" is strictly less than 20%?
Result block: false (0)

Query block: Regarding "CCn1ncc(CN2C[C@@H]3CCCN3C[C@@H]2CCSC)c1C" , kindly confirm whether its INHIBITION is beneath 20%.
Result block: false (0)

Query block: Quick check: does "Fc1cnc(N2CCC3(CC2)CN(Cc2cccs2)CCO3)nc1" have INHIBITION under 20%?
Result block: false (0)
